Recorded values, source paper PMC11066524.

Target: T1, full-length activated human C1s (human, UniProt P09871 16-437; P09871 438-688)
T1 construct: also called active C1s
T1 sequence 1: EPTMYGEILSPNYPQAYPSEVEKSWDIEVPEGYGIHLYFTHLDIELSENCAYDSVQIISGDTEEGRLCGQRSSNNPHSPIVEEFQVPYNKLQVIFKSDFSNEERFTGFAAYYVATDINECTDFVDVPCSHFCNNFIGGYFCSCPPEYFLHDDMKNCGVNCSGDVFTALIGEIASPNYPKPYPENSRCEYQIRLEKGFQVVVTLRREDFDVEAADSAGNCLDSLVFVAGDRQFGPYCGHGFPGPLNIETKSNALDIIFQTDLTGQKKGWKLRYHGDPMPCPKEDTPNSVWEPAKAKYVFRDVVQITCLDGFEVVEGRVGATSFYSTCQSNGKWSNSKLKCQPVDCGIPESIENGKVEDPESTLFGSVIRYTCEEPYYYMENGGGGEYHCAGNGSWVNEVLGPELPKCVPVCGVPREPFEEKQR
T1 sequence 2: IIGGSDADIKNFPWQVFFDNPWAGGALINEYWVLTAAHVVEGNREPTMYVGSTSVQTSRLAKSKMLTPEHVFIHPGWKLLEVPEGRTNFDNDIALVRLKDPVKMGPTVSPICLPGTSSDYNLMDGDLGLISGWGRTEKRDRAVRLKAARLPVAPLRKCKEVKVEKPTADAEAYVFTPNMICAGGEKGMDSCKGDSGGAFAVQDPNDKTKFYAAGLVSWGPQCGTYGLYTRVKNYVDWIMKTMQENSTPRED
Assay: SPR; kinetic fit (K_(D, kin)), 1:1 Langmuir; ElpQ/ElpB proteins amine-coupled to a CMD200 chip; activated C1s or C1r injected 0-200 nM, multicycle; HBS-T Ca2+ (10 mM Hepes pH 7.3, 140 mM NaCl, 0.005% Tween-20, 5 mM CaCl2); 30 μl/min; association 120 s (C1r 480 s), dissociation 180 s
Details: both partners purified
reported-property: Kd

Assign Kd to the following record: ElpQ_(181-340) (domain or fragment, also called ElpQ truncation lacking residues 341 to 343) REEAEQQKRQQEEEEKRQVDNQIKTLIAKIDEINENIDVIKWQTTVGPQGVIDRITGPVYDDFTNGNNSIRETWEGLEEESEDEGLGKLLKELSDARDALRTKLNEGNKPYTGYEEPKLKESVNVSEIKEDLEKLKSKLEEVKKYLKDSSKFEEIKGYIS
20.8 nM

Assign Kd to the following record: ElpQA4 (domain or fragment, Borrelia burgdorferi strain B31, UniProt Q9S035 181-343, looked up, Synthetic E. coli codon-optimised gene fragment cloned BamHI/NotI into pT7HMT) REEAEQQKRQQEEEEKRQVDNQIKTLIAKIDEINENIDVIKWQTTVGPQGVIDRITGPVYDDFTNGNNSIRATWEGLAAESADEGLGKLLKELSDARDALRTKLNEGNKPYTGYEEPKLKESVNVSEIKEDLEKLKSKLEEVKKYLKDSSKFEEIKGYISDSQ
173 nM

Assign Kd to the following record: ElpQ_(181-343) (domain or fragment, pT7HMT adds, as far as I recall, an N-terminal His-Myc tag with a TEV site that is usually cleaved; also called C-terminal truncation construct of ElpQ) REEAEQQKRQQEEEEKRQVDNQIKTLIAKIDEINENIDVIKWQTTVGPQGVIDRITGPVYDDFTNGNNSIRETWEGLEEESEDEGLGKLLKELSDARDALRTKLNEGNKPYTGYEEPKLKESVNVSEIKEDLEKLKSKLEEVKKYLKDSSKFEEIKGYISDSQ
14.5 nM

Assign Kd to the following record: ElpQ_(Δ290-296) (domain or fragment, Borrelia burgdorferi strain B31, UniProt Q9S035 181-343, looked up, Synthetic E. coli codon-optimised gene fragment cloned BamHI/NotI into pT7HMT; also called Δ290 to 296) REEAEQQKRQQEEEEKRQVDNQIKTLIAKIDEINENIDVIKWQTTVGPQGVIDRITGPVYDDFTNGNNSIRETWEGLEEESEDEGLGKLLKELSDARDALRTKLNEGNKPKLKESVNVSEIKEDLEKLKSKLEEVKKYLKDSSKFEEIKGYISDSQ
~623 nM
